- Test system: Escherichia coli
- Measurement Protocol: Antibacterial activity against Escherichia coli ATCC 25922 at 1000 ug/ml after 24 hrs by cup plate method
- Format: functional
- Measurement Conditions: ATCC 25922, 24 h, read-out: IZ
Readout Kind: zone of inhibition at 1000 µg/mL
Please give the number followed by its unit.

Here's what some known entries look like.
>  <Molecule>
Brc1cc2c(cc1C(c1c(-c3ccccc3)[nH]c3ccccc13)c1c(-c3ccccc3)[nH]c3ccccc13)OCO2

>  <zone of inhibition at 1000 µg/mL>
23 mm

$$$$
>  <Molecule>
Clc1ccc(-c2nn(-c3ccccc3)cc2C(c2c(-c3ccccc3)[nH]c3ccccc23)c2c(-c3ccccc3)[nH]c3ccccc23)cc1

>  <zone of inhibition at 1000 µg/mL>
15 mm

$$$$
>  <Molecule>
c1ccc(-c2cc(-c3ccccn3)nc3ccccc23)cc1

>  <zone of inhibition at 1000 µg/mL>
18 mm

$$$$
>  <Molecule>
Cc1ccc(-c2cc(-c3ccccc3)c3cc(Cl)ccc3n2)cc1

>  <zone of inhibition at 1000 µg/mL>
22 mm

$$$$

Alright, here's another compound for you.
Give zone of inhibition at 1000 µg/mL for this entry on Escherichia coli: Clc1nc2ccccc2cc1C(c1c(-c2ccccc2)[nH]c2ccccc12)c1c(-c2ccccc2)[nH]c2ccccc12
15 mm

----------
Consider the following compounds and their measured zone of inhibition at 1000 µg/mL readings.
- System: Candida albicans
- Measurement Protocol: Antifungal activity against Candida albicans ATCC 10231 at 1000 ug/ml after 24 hrs by cup plate method
- Assay type: functional
- Measurement Conditions: ATCC 10231, 24 h, read-out: IZ
Please give the number followed by its unit.

Here's what some known entries look like.
>  <Molecule>
Clc1ccc2nc(-c3ccccc3)cc(-c3ccccc3)c2c1

>  <Readout Kind>
zone of inhibition at 1000 µg/mL

>  <Reported>
16 mm

$$$$
>  <Molecule>
c1ccc(-c2cc(-c3ccccc3)c3ccccc3n2)cc1

>  <Readout Kind>
zone of inhibition at 1000 µg/mL

>  <Reported>
13 mm

$$$$

Return zone of inhibition at 1000 µg/mL for the following compound: CCn1c2ccccc2c2cc(C(c3c(-c4ccccc4)[nH]c4ccccc34)c3c(-c4ccccc4)[nH]c4ccccc34)ccc21
24 mm

Return zone of inhibition at 1000 µg/mL for the following compound: O=C(O)c1ccc(C(c2c(-c3ccccc3)[nH]c3ccccc23)c2c(-c3ccccc3)[nH]c3ccccc23)cc1
16 mm

Return zone of inhibition at 1000 µg/mL for the following compound: COc1cc(C(c2c(-c3ccccc3)[nH]c3ccccc23)c2c(-c3ccccc3)[nH]c3ccccc23)cc(Br)c1O
26 mm

Return zone of inhibition at 1000 µg/mL for the following compound: Clc1ccc(-c2nn(-c3ccccc3)cc2C(c2c(-c3ccccc3)[nH]c3ccccc23)c2c(-c3ccccc3)[nH]c3ccccc23)cc1
12 mm

Return zone of inhibition at 1000 µg/mL for the following compound: Cc1ccc(-c2cc(-c3ccccc3)c3ccccc3n2)cc1
19 mm

Return zone of inhibition at 1000 µg/mL for the following compound: c1ccc(-c2ccc(C(c3c(-c4ccccc4)[nH]c4ccccc34)c3c(-c4ccccc4)[nH]c4ccccc34)cc2)cc1
25 mm

----------
- Tested on: Candida albicans
- Measurement Protocol: Antifungal activity against Candida albicans ATCC 10231 at 1000 ug/ml after 24 hrs by cup plate method
- Format: functional
- Measurement Conditions: ATCC 10231, 24 h, read-out: IZ
Short version: zone of inhibition at 1000 µg/mL at least 20 mm is label 1, less is label 0.

>  <Molecule>
Cc1cc(-c2ccccc2)nc2ccccc12

>  <Assigned Class>
label 0

$$$$
>  <Molecule>
COc1cccc(-c2cc(-c3ccccc3)c3ccccc3n2)c1

>  <Assigned Class>
label 0

$$$$
>  <Molecule>
CCCCc1cc(-c2ccccc2)c2ccccc2n1

>  <Assigned Class>
label 0

$$$$
>  <Molecule>
Cc1ccc(-c2cc(-c3ccccc3)c3cc(Cl)ccc3n2)cc1

>  <Assigned Class>
label 1

$$$$

Answer whether zone of inhibition at 1000 µg/mL of Brc1cccc(-c2cc(-c3ccccc3)c3ccccc3n2)c1 is greater than or equal to 20 mm.
label 0

Answer whether zone of inhibition at 1000 µg/mL of CCCCCc1ccc(-c2cc(C)c3ccccc3n2)cc1 is greater than or equal to 20 mm.
label 0

# credit: ChEMBL document CHEMBL1287786
